study system: T1, glucose-dependent insulinotropic peptide (gastric inhibitory polypeptide) receptor (GIPR), primary cAMP assay … (human, UniProt P48546 22-466)
T1 sequence (looked up): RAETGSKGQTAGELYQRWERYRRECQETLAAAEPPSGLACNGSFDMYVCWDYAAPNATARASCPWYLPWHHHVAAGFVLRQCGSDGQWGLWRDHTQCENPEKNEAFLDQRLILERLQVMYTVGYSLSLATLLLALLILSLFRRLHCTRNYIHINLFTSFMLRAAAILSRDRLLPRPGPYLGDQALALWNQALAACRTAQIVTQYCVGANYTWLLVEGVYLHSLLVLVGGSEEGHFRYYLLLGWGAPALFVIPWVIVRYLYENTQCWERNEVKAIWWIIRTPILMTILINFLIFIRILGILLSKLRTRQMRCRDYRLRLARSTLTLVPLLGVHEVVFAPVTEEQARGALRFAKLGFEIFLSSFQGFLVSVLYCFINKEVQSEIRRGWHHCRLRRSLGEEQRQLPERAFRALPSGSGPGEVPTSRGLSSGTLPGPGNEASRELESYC
assay remarks: cell-based or functional assay
Starred links: 1 amine or outer side, 2 acyl side, 3 side chain; linkers in the order of their positions; H or OH if unused. Non-standard residues stand in square brackets, D forms with d. Groups on a side chain read outwards from the residue. Primed or numbered codes have the meaning given here. No end group written: not given here. *: point of attachment. γGlu = O=C(O)[C@H](CCC(=O)[*:2])N[*:1]; αMeF = C[C@](N)(Cc1ccccc1)C(=O)O; αMeK = C[C@](N)(CCCCN)C(=O)O; Lauroyl = CCCCCCCCCCCC(=O)*; αMeS = C[C@](N)(CO)C(=O)O; PEG2′ = not defined here; Aib = CC(C)(N)C(=O)O
measure: cAMP Primary assay EC50, n1 (nM)

{"columns": ["binder", "cAMP Primary assay EC50, n1 [nM]"],
 "data": [
  ["H[Aib]EGS[αMeF]TSDV[αMeS]SYK([PEG2′-PEG2′-γGlu-Lauroyl])EGEK([PEG2′-PEG2′-γGlu-Lauroyl])A[αMeK]EFIAK([PEG2′-PEG2′-γGlu-Lauroyl])VVEGG-NH2 [SEQ ID NO: 469]", 19.8],
  ["H[Aib]EGS[αMeF]TSDK([PEG2′-PEG2′-γGlu-Lauroyl])SSYLEGK([PEG2′-PEG2′-γGlu-Lauroyl])AA[αMeK]EFIAK([PEG2′-PEG2′-γGlu-Lauroyl])VVEGG-NH2 [SEQ ID NO: 456]", 20],
  ["H[Aib]EGS[αMeF]TSDV[αMeS]SK([PEG2′-PEG2′-γGlu-Lauroyl])LEGEK([PEG2′-PEG2′-γGlu-Lauroyl])A[αMeK]EFIAK([PEG2′-PEG2′-γGlu-Lauroyl])VVEGG-NH2 [SEQ ID NO: 465]", 20],
  ["H[Aib]EGS[αMeF]TSDV[αMeS]SYK([PEG2′-PEG2′-γGlu-Lauroyl])EGEK([PEG2′-PEG2′-γGlu-Lauroyl])A[αMeK]EFIK([PEG2′-PEG2′-γGlu-Lauroyl])FVVEGG-NH2 [SEQ ID NO: 453]", 19.5]
]}
